This listing pairs compounds with measured Carotid/Blood, mean.
System: ApoE −/− mice, carotid artery
Assay: Biodistribution in ApoE ligation model of atherosclerosis (ligated and sham)
Type: in vivo
Details: ApoE Ligated, 60 min post injection
METRIC: Carotid/Blood, mean

• NC(=O)[C@H](CCCCNC(=O)CON=Cc1ccc([18F])cc1)NC(=O)CCOCCOCCOCCOCCOCCOCCOCCOCCOCCOCCOCCNC(=O)CCOCCOCCOCCOCCOCCOCCOCCOCCOCCOCCOCCNC(=O)CCN(C1(C(=O)NO)CCCC1)S(=O)(=O)c1ccc(Oc2ccc(F)cc2)cc1 [Compound 48B] = 0.96
• O=C(CCN(C1(C(=O)NO)CCCC1)S(=O)(=O)c1ccc(Oc2ccc(F)cc2)cc1)NCCc1ccc(O)c([123I])c1 [Compound 24A] = 1.97
• NC(=O)[C@H](CCCCNC(=O)CON=Cc1ccc([18F])cc1)NC(=O)CCN(C1(C(=O)NO)CCCC1)S(=O)(=O)c1ccc(Oc2ccc(F)cc2)cc1 [Compound 46B] = 0.61
• NC(=O)[C@H](Cc1ccc(O)c([123I])c1)NC(=O)CCOCCOCCOCCOCCOCCOCCOCCOCCOCCOCCOCCNC(=O)CCOCCOCCOCCOCCOCCOCCOCCOCCOCCOCCOCCNC(=O)CCN(C1(C(=O)NO)CCCC1)S(=O)(=O)c1ccc(Oc2ccc(F)cc2)cc1 [Compound 32A] = 1.21

---

System: Lewis lung carcinoma (LLC) tumour
Assay: Biodistribution in LLC tumour model in vivo
Design: species or system C57BL/6 mice
Conditions: 60 min post injection
Description: 1×10^6 Lewis lung carcinoma (LLC) cells are injected subcutaneously into right inner thigh of C57BL/6 mice. Tumours were allowed to grow for 15 days prior to biodistribution being carried out. Biodistribution studies were performed in the LLC tumour model. Biodistribution was performed in the LLC tumour model of Example 23 with Compounds 46B and 48B.
Entries and their measured Tumour/Lung, mean follow.
METRIC: Tumour/Lung, mean

* NC(=O)[C@H](CCCCNC(=O)CON=Cc1ccc([18F])cc1)NC(=O)CCOCCOCCOCCOCCOCCOCCOCCOCCOCCOCCOCCNC(=O)CCOCCOCCOCCOCCOCCOCCOCCOCCOCCOCCOCCNC(=O)CCN(C1(C(=O)NO)CCCC1)S(=O)(=O)c1ccc(Oc2ccc(F)cc2)cc1 [Compound 48B] | 0.95
* NC(=O)[C@H](CCCCNC(=O)CON=Cc1ccc([18F])cc1)NC(=O)CCN(C1(C(=O)NO)CCCC1)S(=O)(=O)c1ccc(Oc2ccc(F)cc2)cc1 [Compound 46B] | 0.60
* NCCCC[C@H](NC(=O)CCN(C1(C(=O)NO)CCCC1)S(=O)(=O)c1ccc(Oc2ccc(F)cc2)cc1)C(=O)N[C@@H](CCCCN)C(=O)N[C@@H](CCCCN)C(=O)N[C@@H](CCCCN)C(=O)N[C@@H](CCCCN)C(=O)NCCOCCOCCOCCNC(=O)COCC(=O)N[C@@H](Cc1ccc(O)c([123I])c1)C(N)=O [Compound 42A] | 0.74
* NC(=O)[C@H](Cc1ccc(O)c([123I])c1)NC(=O)[C@H](CCC(=O)O)NC(=O)[C@H](CCC(=O)O)NC(=O)[C@H](CCC(=O)O)NC(=O)[C@H](CCC(=O)O)NC(=O)[C@H](CCC(=O)O)NC(=O)CCN(C1(C(=O)NO)CCCC1)S(=O)(=O)c1ccc(Oc2ccc(F)cc2)cc1 [Compound 21A] | 0.66

The measured values listed here are drawn from patent US20070104644A1.
